Every entry's value here was drawn from PubChem BioAssay (NCI).

System: SK-MEL-2 melanoma
Method Summary: NCI-60 one-dose screen, 48 h (100 = growth as untreated, 0 = no growth, -100 = all killed)
Particulars: 10 µM unless noted
This is part of a sample that, as a whole, favours compounds with a hit. Of some 83,000 tested, about 20% had one in any assay.
Endpoint Label: growth (%)

{"columns": ["Molecule", "Measured Value"],
 "data": [
  ["CCN(CC)CCNC(=O)C(Cl)=C1C(Cl)=C(Cl)C(Cl)=C1Cl", 47.6],
  ["COc1ccc(-c2nc(N3CCN(C(=O)C4CCCCC4)CC3)c3c4c(sc3n2)CCCC4)cc1", 24.7],
  ["COc1cc(C2C3=C(COC3=O)N(CCO)c3cc4c(cc32)CCC4)cc(OC)c1O (configuration not stated)", 89],
  ["COc1ccc(Nc2nc(N/N=C/c3ccc(O)cc3)nc(Nc3ccc([N+](=O)[O-])cc3)n2)cc1", 103],
  ["NCCNc1nc2ccccc2c2c(=O)c3cc(F)cc(Cl)c3sc12", 99.1],
  ["Cc1ccc2[nH]c(=O)cc(-n3nncc3Cn3c4ccccc4c4ccccc43)c2c1", 103],
  ["CCN1CCN(c2cc(C)c3cc(NC(=O)c4ccc(OC)c(OC)c4)ccc3n2)CC1", 50.7],
  ["CCOc1ccccc1CN1CCc2nc3cc(C(C)(C)C)[nH]n3c(=O)c2C1", 98.3],
  ["C#CCn1cc(C=C2C(=O)N(C)C(=O)N(C)C2=O)c2cc(Cl)ccc21", 95.5],
  ["O=C1/C(=C/c2cccc(O)c2)COc2ccc(O)cc21", 108],
  ["CC[C@@H](C)[C@H](NC(=O)Cn1cc(CNC(=O)[C@@H](NC(=O)OCc2ccccc2)C(C)C)nn1)C(=O)O", 110],
  ["COc1cc(-c2c3c(cn2S(=O)(=O)c2ccccc2)-c2nc(N)sc2CC3)cc(OC)c1OC", 54.3],
  ["Cc1ccc(F)cc1NC(=O)c1cc(Cl)ccc1Nc1ccccc1", 54.9],
  ["Nc1nc(-c2cnccn2)nn1-c1nc2ccccc2s1", 99.5],
  ["COc1ccc(OC)c(N(CCN2C(=O)c3ccccc3C2=O)C(=O)CCl)c1", 72.3],
  ["CCOC(=O)c1cnc2c(C)cccc2c1Nc1ccc(C(C)=O)cc1", -76.2],
  ["CCOC(=O)c1cc2c(n1Cc1cc(OC)cc(OC)c1)-c1oncc1CCC2", 41.8],
  ["Clc1ccc(-c2nnc(COc3ccc(C4=NNC(c5ccco5)C4)cc3)o2)cc1 (configuration not stated)", 106],
  ["COc1ccc(Cn2cc(Cn3c(=O)c(-c4nc5ccccc5[nH]4)cc4ccccc43)nn2)c(OC)c1OC", 28],
  ["COc1cccc(C2=NN3C(C2)c2ccccc2OC3c2ccc(/C=C3\\SC(=O)NC3=O)cc2)c1 (configuration not stated)", 97.8],
  ["O=c1c2cc(F)ccc2sc2c(NCCN3CCCC3)nc3ccccc3c12", 91],
  ["COc1cc2cc3c(=O)n4c(cc5cc(OC)ncc54)c(=O)n3c2cn1", 98],
  ["COc1ccc(CCN2CCC(CN(C)Cc3cnn(-c4ccccc4)c3)CC2)cc1", 37.3],
  ["COC(=O)C1=C(C)NC(C)=C(C(=O)OC)C(N2C(=O)CCC2=O)C1 (configuration not stated)", 99.1],
  ["O=c1oc2ccc(F)cc2c(=O)n1-c1ccc(Cl)cc1F", -28.7],
  ["COc1ccc(N(C)c2nc(N)nc3sc4c(c23)CCCC4)cc1", 16.6],
  ["O=C(CCc1nnc2sc(-c3ccc(Cl)cc3Cl)nn12)c1nc2ncccc2[nH]1", -11.5]
]}
